Data origin, for the record: patent US20120039802A1

Known % of binding in the absence of HGF of a selection of binders
targetOfAssay: T1, cMet-Fc fusion protein (extracellular domain of the cMet receptor expressed as an Fc-fusion protein) (human, UniProt P08581 25-932)
T1 construct: extracellular domain; also called soluble cMet-Fc-fusion protein; soluble cMet receptor; not shown: Fc part
T1 sequence (P08581 25-932): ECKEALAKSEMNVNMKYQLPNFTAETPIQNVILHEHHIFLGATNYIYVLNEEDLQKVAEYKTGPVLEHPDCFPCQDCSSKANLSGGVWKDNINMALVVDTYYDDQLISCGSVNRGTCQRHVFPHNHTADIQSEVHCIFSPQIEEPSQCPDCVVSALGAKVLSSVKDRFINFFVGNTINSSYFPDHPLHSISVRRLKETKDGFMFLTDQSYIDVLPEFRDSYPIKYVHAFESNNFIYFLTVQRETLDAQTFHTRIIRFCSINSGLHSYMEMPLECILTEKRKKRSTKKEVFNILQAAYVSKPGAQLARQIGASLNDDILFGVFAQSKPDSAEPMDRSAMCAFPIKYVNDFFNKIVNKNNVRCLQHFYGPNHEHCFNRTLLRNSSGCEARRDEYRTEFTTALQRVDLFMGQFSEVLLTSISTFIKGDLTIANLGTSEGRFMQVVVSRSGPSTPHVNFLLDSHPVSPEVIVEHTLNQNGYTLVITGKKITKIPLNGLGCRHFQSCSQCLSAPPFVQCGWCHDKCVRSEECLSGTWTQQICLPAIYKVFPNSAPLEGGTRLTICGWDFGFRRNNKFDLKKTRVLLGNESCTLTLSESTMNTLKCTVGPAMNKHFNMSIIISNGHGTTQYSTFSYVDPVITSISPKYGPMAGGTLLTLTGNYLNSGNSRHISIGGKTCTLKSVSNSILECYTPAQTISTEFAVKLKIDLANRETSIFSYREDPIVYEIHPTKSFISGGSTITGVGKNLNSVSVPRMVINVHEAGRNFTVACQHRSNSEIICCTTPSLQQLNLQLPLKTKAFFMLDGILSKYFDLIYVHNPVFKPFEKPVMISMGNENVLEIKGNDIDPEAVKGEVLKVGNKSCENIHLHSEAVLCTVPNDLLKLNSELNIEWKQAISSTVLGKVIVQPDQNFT
testSummary: phage ELISA on cMet-Fc, competitor HGF 500 ng/mL
Provide the reading as a plain figure in %.

# binder, % of binding in the absence of HGF / %
data = [
    ("AGLYLCDLSIMYCFFQGT [489-A04 peptide-displaying phage (SEQ ID NO: 015)]", 13),
    ("GSSHLCNPEFCHFTAP [465-D09 peptide-displaying phage (SEQ ID NO: 003)]", 70),
    ("AGTWHCAGPPWFTCYMDGT [551-B02 peptide-displaying phage (SEQ ID NO: 069)]", 43),
    ("GDPWWCFEKDSFIPFACWHHDP [330-G02 peptide-displaying phage (SEQ ID NO: 396)]", 31),
    ("AGQAVCEWGPFWCQMQGT [470-A02 peptide-displaying phage (SEQ ID NO: 031)]", 62),
]

Ask: Request the reported % of binding in the absence of HGF associated with AQRWSSPGMSQSFVLEWKWNDN [118-A08 peptide-displaying phage (SEQ ID NO: 453)]
Reply: 74

Ask: Queued: GSQNNCEYGSRGSSFCLAMAP [465-C06 peptide-displaying phage (SEQ ID NO: 377)]
Reply: 104
